- Tested on: RNAi-treated eri-1 (mg366) nematodes
- experiment: RNAi screening of olfactory receptor genes: chemotaxis assay of RNAi-treated nematodes to odorants
- Format: in vivo, Caenorhabditis elegans
- recorded conditions: srh-113 RNAi-treated nematodes; low concentration of attractant
Some compounds, each annotated with its measured chemotaxis index.

| compound | chemotaxis index |
| --- | --- |
| CCC(=O)C(C)=O [pentanedione] | 0.14 |
| CCC(C)=O [butanone] | 0.30 |
| Cc1nc(C)c(C)s1 [trimethylthiazole] | 0.83 |
| c1cnccn1 [pyrazine] | 0.35 |

* * *

- System: RNAi-treated eri-1 (mg366) nematodes
- experiment: RNAi screening of olfactory receptor genes: chemotaxis assay of RNAi-treated nematodes to odorants
- Assay type: in vivo, Caenorhabditis elegans
- recorded conditions: srh-293 RNAi-treated nematodes; low concentration of attractant
Some compounds, each annotated with its measured chemotaxis index.

| smiles record | assay system | chemotaxis index |
| --- | --- | --- |
| c1cnccn1 | RNAi-treated eri-1 (mg366) nematodes | 0.59 |
| CCC(C)=O | RNAi-treated eri-1 (mg366) nematodes | 0.75 |
| CCC(=O)C(C)=O | RNAi-treated eri-1 (mg366) nematodes | 0.00 |
| Cc1nc(C)c(C)s1 | RNAi-treated eri-1 (mg366) nematodes | 0.82 |
| O=Cc1ccccc1 | RNAi-treated eri-1 (mg366) nematodes | 0.31 |
| CC(C)CCO | RNAi-treated eri-1 (mg366) nematodes | 0.71 |
